Each entry below lists one item and its recorded inhibition value.
tgt: Gag-Pol polyprotein (Human immunodeficiency virus type 1 group M subtype B (isolate HXB2))
assayName: RNase H inhibition, HIV 1 Gag Pol polyprotein, FRET biochemical assay, screening (AID 372)
conditionDescription: HIV-1 RT RNase H, FRET RNA/DNA substrate fluorescence; at 10 µM; hits give high values
Screen size: about 100,000 compounds; about 770 (0.77%) were called active. The entries come from a sample that favours actives as a whole.
Return type: number; implicit unit %.

- compound: "Cc1ccc(C(C)C)c(OCC(=O)N2CCN(c3ccc([N+](=O)[O-])cc3Cl)CC2)c1"
  assayValue: 21
- compound: "O=C(c1ccccc1)c1ccc2[nH]c(=O)[nH]c2c1"
  assayValue: 0

Data request: Provide one value: measured inhibition of Cc1cccc(C(=O)N2N=C(c3ccc(F)cc3)CC2(O)C(F)(F)F)c1 (stereo not given)
Data returned: 0

----------
Each entry below lists one item and its recorded inhibition value.
tgt: Gag-Pol polyprotein (Human immunodeficiency virus type 1 group M subtype B (isolate HXB2)) (UniProt P04585)
assayName: RNase H inhibition, HIV 1 Gag Pol polyprotein, FRET biochemical assay, screening (AID 372)
conditionDescription: HIV-1 RT RNase H, FRET RNA/DNA substrate fluorescence; at 10 µM; hits give high values
About 770 (0.77%) of roughly 100,000 compounds were called active. Many of the other results were omitted from the sample, so actives are more common in it than they were.
Return type: number; implicit unit %.

- compound: "Cc1ncc(CO)c(/C=N/Nc2ccccc2)c1O"
  measuredEndpoint: "inhibition"
  measurementUnits: "%"
  assayValue: 13
- compound: "Cc1cccc(/C=N/NC(=O)c2cc(O)cc(O)c2)c1"
  measuredEndpoint: "inhibition"
  measurementUnits: "%"
  assayValue: 0
- compound: "O=C(N/N=C/c1ccc(O)c(O)c1)c1cccc(I)c1"
  measuredEndpoint: "inhibition"
  measurementUnits: "%"
  assayValue: 44
- compound: "O=C(N/N=C/c1ccc2ccccc2c1)c1ccc(O)cc1"
  measuredEndpoint: "inhibition"
  measurementUnits: "%"
  assayValue: 12
- compound: "O=C1NC(=Nc2ccc(O)cc2)S/C1=C/C(Cl)=C/c1ccc([N+](=O)[O-])cc1"
  measuredEndpoint: "inhibition"
  measurementUnits: "%"
  assayValue: 0
- compound: "COc1ccccc1NC(=O)CN(c1ccc(Cl)cc1Cl)S(=O)(=O)c1ccccc1"
  measuredEndpoint: "inhibition"
  measurementUnits: "%"
  assayValue: 13
- compound: "COc1cccc(C(=O)NC(=S)Nc2ccc(-c3nc4cc(C)ccc4o3)c(O)c2)c1"
  measuredEndpoint: "inhibition"
  measurementUnits: "%"
  assayValue: 53
- compound: "O=C1NC(=Nc2cccc(O)c2)S/C1=C/C(Cl)=C/c1ccc([N+](=O)[O-])cc1"
  measuredEndpoint: "inhibition"
  measurementUnits: "%"
  assayValue: 51

We next turn to a different compound, shown below.
Data request: Provide one value: measured inhibition of CCOc1ccc2ccc(OCC)c(/C=C3/C(=O)NC(=O)N(Cc4ccco4)C3=O)c2c1
Data returned: 26

----------
tgt: Gag-Pol polyprotein (Human immunodeficiency virus type 1 group M subtype B (isolate HXB2)) (UniProt P04585)
assayName: RNase H inhibition, HIV 1 Gag Pol polyprotein, FRET biochemical assay, screening (AID 372)
conditionDescription: HIV-1 RT RNase H, FRET RNA/DNA substrate fluorescence; at 10 µM; hits give high values
The campaign covered roughly 100,000 compounds. About 770 (0.77%) were called active. This is one part of a sample in which actives are shown more often than they occur.
Please enter fulfilled where inhibition is greater than or equal to 10%, and not fulfilled where it is lower.

Check out these entries, answers already filled in.
- smilesInput: "C#CCSc1nc(C)cc(C)c1C#N"
  labelValue: "fulfilled"
- smilesInput: "C=CCN(c1ccccc1C(=O)O)S(=O)(=O)/C=C/c1ccccc1"
  labelValue: "not fulfilled"
- smilesInput: "COc1ccc(-c2csc(/C(C#N)=C/c3ccc(O)cc3)n2)cc1OC"
  labelValue: "fulfilled"
- smilesInput: "Cc1ccc(N=Cc2c(O)n(Cc3ccccc3)c(=O)[nH]c2=O)cc1"
  labelValue: "fulfilled"
- smilesInput: "COc1ccc(-c2csc(/C(C#N)=C/c3ccc(O)c(O)c3)n2)cc1OC"
  labelValue: "fulfilled"

Data request: Is it the case that COc1cccc(NC(=O)c2ccc(C(C)(C)C)cc2)c1 has inhibition reaching or exceeding 10%?
Data returned: fulfilled

Data request: Is it the case that CC(/C=C/c1ccco1)=N/NC(=O)COc1cccc(Cl)c1 has inhibition reaching or exceeding 10%?
Data returned: fulfilled

Reference source: PubChem BioAssay AID372
